meta.source: PubChem BioAssay (NCI)

Test system: SK-MEL-2 melanoma
Assay: NCI-60 one-dose screen, 48 h (100 = growth as untreated, 0 = no growth, -100 = all killed)
Settings: 10 µM
Compounds without any hit were thinned out: in the full panel of roughly 83,000, 20% have a hit.
Quick rule: growth of at least 80% means fulfilled, below that means not fulfilled.

Query: Decide: is the reported value of growth for "CCOC(=O)N1C/C(=C/c2ccc(Cl)cc2)C(=O)/C(=C/c2ccc(Cl)cc2)C1" equal to or greater than 80%?
Result: fulfilled

Query: Decide: is the reported value of growth for "CCC(=O)N1C/C(=C/c2ccc(Cl)cc2)C(=O)/C(=C/c2ccc(Cl)cc2)C1" equal to or greater than 80%?
Result: not fulfilled

Query: Decide: is the reported value of growth for O=C1NC(=O)N(Cc2ccccc2)CC1Br (stereo unspecified) equal to or greater than 80%?
Result: not fulfilled

Query: Decide: is the reported value of growth for "COc1ccc(Cl)cc1C(=O)Nc1nc2ccc(Cl)cc2s1" equal to or greater than 80%?
Result: fulfilled

Query: Decide: is the reported value of growth for "COc1ccc(/C=C/C(=O)Nc2ccc(-c3nc4ccc(OC)cc4s3)cc2)cc1" equal to or greater than 80%?
Result: fulfilled

Query: Decide: is the reported value of growth for "Cc1ccc(NC(=O)Nc2c(Cl)cccc2Cl)cn1" equal to or greater than 80%?
Result: fulfilled
